- measurement target: T1, HBsAg AD serotype (Hepatitis B virus)
- T1 construct: also called HBsAg serotype AD
- assay name: SPR Biacore T200, HBsAg particles immobilized, antibody as analyte, 1:1 fit;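 further: Anti-HBsAg antibodies assessed for binding against both major HBsAg serotypes, AY and AD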
value type: pKd
For clarity, pKd is expressed as the negative log10 of concentration in mol/L.

Identify measured pKd associated with NOV3840 (antibody, human IgG1, lambda, V domains shown, Full human IgG1 (lambda) expressed in CHO cells) VH: EVQLLESGGGLVQPGGSRRLSCAASGFTFSYYGMNWVRQAPGKGLEWVSGITNSGSITYYADSVKGRFSISRDNSKNTLFLQMNSLRAEDTAVYYCAKVGVRSSSGMWDLDYWGQGTLVTVSS VL: SYVLTQPPSVSVAPGQTARLSCGGNNIGSKSLQWYQQKPGQAPVLVVNDDSDRPSGIPERFSGSNSGNTATLTISRVEAGDEADYYCQVWDTSSDHVVFGGGTKLTVLG
9.35
